Where do the numbers come from? From PubChem BioAssay (NCI).

System: OVCAR-5 ovarian
test.details: NCI-60 one-dose screen, 48 h (100 = growth as untreated, 0 = no growth, -100 = all killed)
experimental.parameters: 10 µM unless noted
Description: Growth inhibition of the OVCAR-5 human tumor cell line is measured as a screen for anti-cancer activity. Cells are grown in 96 well plates and exposed to the test compound for 48 hours. Compounds are tested at a single concentration, which is 10^-5 M for most compounds. The reported endpoint is percent growth (GI% or GIPRCNT), where numbers from 0 - 100% represent growth inhibition, and numbers from -100% - 0 represent cell death. For example, a value of 40 represents 60% growth inhibition. […]
Compounds without any hit were thinned out: in the full panel of roughly 83,000, 20% have a hit.
Give measured growth for each item. Keep answers brief.
Numbers only, in %.

molecule	growth / %
O=C(c1ccccc1)C1(Br)CCCCC1	97
CCNCc1ccccc1	98.5
O=C1C2=C(Nc3cc(Cl)ccc3N2)OC1c1c[nH]c2ccc(COc3ccccc3)cc12 (configuration not stated)	88.2
OCc1ccccc1F	76.9
O=C(O)C#Cc1ccc(Cl)cc1	102
CCOC(=O)CN1CCC(C(=O)OCC)CC1	104
O=c1[nH]c(=S)[nH]n1C(=S)n1[nH]c(=S)[nH]c1=O	105
O=C1c2ccccc2CN1c1ccccc1	98
Clc1ccc2sc(-c3ccccc3)nc2c1	120
CC(C)(C)OC(=O)CC1(O)CCCCC1	115

Would you be so kind as to report growth for each listed record?
1. CC(=O)Nc1cscc1NC(C)=O
2. COC(=O)c1ccccc1Cl
3. Nc1nc(=S)c2[nH]cnc2[nH]1

91.9
106
-30.1

Would you be so kind as to report growth for each listed record?
1. N=C(N)N1CCc2ccccc2C1
2. Nc1nc(-c2ccccn2)cc(-c2cc(-c3ccccn3)nc(N)n2)n1
3. Nc1ccc2ccc(NS(=O)(=O)N3CCCCC3)cc2c1
4. OC1CCCN(Cc2ccccc2)C1 (configuration not stated)
5. CCOC(=O)c1ccc(N2C(=O)C(Cl)(c3ccccc3)C2c2ccco2)cc1 (configuration not stated)
6. C/C(CC(C)C)=N/NC(N)=S
7. CC(C)(C)C1CCC(=NO)CC1 (configuration not stated)
8. O=C1c2ccccc2C(c2ccccc2)C1c1ccccc1 (configuration not stated)

1: 88.4; 2: 109; 3: 56.1; 4: 108; 5: 98.2; 6: 114; 7: 90.3; 8: 101

Entry "CCOC(=N)c1ccc(C(=N)OCC)cc1" has what growth? 105
